# Ratio Ki per entry
test: Selectivity index, ratio of Ki for displacement of [3H]U69,593 from kappa opioid receptor in guinea-pig brain membranes to Ki for displacement of [3H]DAMGO from mu opioid receptor in rat brain membranes; assay type: cell membranes
resultType: Ratio Ki

>>> print(df.to_string())
                                   compound  measurement
0  CO[C@@]12CC[C@@H](N[C@@H](CCC(=O)O)C(=O)O)[C@@H]3Oc4c(O)ccc5c4[C@@]31CCN(C)[C@@H]2C5          108
1  CO[C@@]12CCC(N[C@@H](CCC(=O)O)C(=O)O)[C@@H]3Oc4c(O)ccc5c4[C@@]31CCN(C)[C@@H]2C5 (single isomer, unassigned)           60
2  CC[C@H](N[C@@H]1CC[C@@]2(OC)[C@H]3Cc4ccc(O)c5c4[C@@]2(CCN3C)[C@H]1O5)C(=O)O          110
3  CO[C@@]12CC[C@H](N[C@@H](CCC(N)=O)C(=O)O)[C@@H]3Oc4c(O)ccc5c4[C@@]31CCN(C)[C@@H]2C5          108
4  CO[C@@]12CC[C@@H](N[C@H](C(=O)O)C(C)C)[C@@H]3Oc4c(O)ccc5c4[C@@]31CCN(C)[C@@H]2C5          100
5  CO[C@@]12CC[C@H](N[C@@H](CC(=O)O)C(=O)O)[C@@H]3Oc4c(O)ccc5c4[C@@]31CCN(C)[C@@H]2C5           37
6  CO[C@@]12CC[C@H](N[C@@H](CCCCN)C(=O)O)[C@@H]3Oc4c(O)ccc5c4[C@@]31CCN(C)[C@@H]2C5           66

====

species on record: Rattus norvegicus; test: Selectivity index, ratio of Ki for displacement of [3H][Ile5,6]deltorphin II from delta opioid receptor in rat brain membranes to Ki for displacement of [3H]DAMGO from mu opioid receptor in rat brain membranes; assay type: cell membranes
resultType: Ratio Ki

>>> print(df.to_string())
                                    compound  measurement
 0  CO[C@@]12CC[C@H](N[C@@H](CC(N)=O)C(=O)O)[C@@H]3Oc4c(O)ccc5c4[C@@]31CCN(C)[C@@H]2C5          2.9
 1  CO[C@@]12CC[C@@H](N[C@@H](CC(=O)O)C(=O)O)[C@@H]3Oc4c(O)ccc5c4[C@@]31CCN(C)[C@@H]2C5          6.6
 2  CO[C@@]12CC[C@@H](N[C@@H](CCCCN)C(=O)O)[C@@H]3Oc4c(O)ccc5c4[C@@]31CCN(C)[C@@H]2C5          6.3
 3  CO[C@@]12CC[C@H](N[C@@H](CCC(N)=O)C(=O)O)[C@@H]3Oc4c(O)ccc5c4[C@@]31CCN(C)[C@@H]2C5          1.6
 4  CO[C@@]12CC[C@H](N[C@H](Cc3ccccc3)C(=O)O)[C@@H]3Oc4c(O)ccc5c4[C@@]31CCN(C)[C@@H]2C5            6
 5  CO[C@@]12CC[C@@H](N[C@@H](CCC(N)=O)C(=O)O)[C@@H]3Oc4c(O)ccc5c4[C@@]31CCN(C)[C@@H]2C5            2
 6  CC[C@H](N[C@@H]1CC[C@@]2(OC)[C@H]3Cc4ccc(O)c5c4[C@@]2(CCN3C)[C@H]1O5)C(=O)O          0.7
 7  CO[C@@]12CC[C@@H](N[C@@H](CCC(=O)O)C(=O)O)[C@@H]3Oc4c(O)ccc5c4[C@@]31CCN(C)[C@@H]2C5          0.7
 8  CO[C@@]12CCC(N[C@@H](CCC(=O)O)C(=O)O)[C@@H]3Oc4c(O)ccc5c4[C@@]31CCN(C)[C@@H]2C5 (single isomer, unassigned)          6.2
 9  CO[C@@]12CC[C@@H](N[C@H](Cc3ccccc3)C(=O)O)[C@@H]3Oc4c(O)ccc5c4[C@@]31CCN(C)[C@@H]2C5          0.9
10  CO[C@@]12CC[C@@H](N[C@@H](Cc3ccc(O)cc3)C(=O)O)[C@@H]3Oc4c(O)ccc5c4[C@@]31CCN(C)[C@@H]2C5          1.2
11  CO[C@@]12CC[C@@H](N[C@@H](C(=O)O)C(C)C)[C@@H]3Oc4c(O)ccc5c4[C@@]31CCN(C)[C@@H]2C5          1.6
12  CO[C@@]12CC[C@H](N[C@@H](Cc3ccc(O)cc3)C(=O)O)[C@@H]3Oc4c(O)ccc5c4[C@@]31CCN(C)[C@@H]2C5          2.6
13  CO[C@@]12CC[C@H](N[C@@H](Cc3c[nH]c4ccccc34)C(=O)O)[C@@H]3Oc4c(O)ccc5c4[C@@]31CCN(C)[C@@H]2C5          2.8
14  CO[C@@]12CC[C@H](N[C@H](C(=O)N[C@@H](Cc3ccc(O)cc3)C(=O)O)C(C)C)[C@@H]3Oc4c(O)ccc5c4[C@@]31CCN(C)[C@@H]2C5          1.5
15  CO[C@@]12CC[C@@H](NCCC(=O)O)[C@@H]3Oc4c(O)ccc5c4[C@@]31CCN(C)[C@@H]2C5           13
16  CO[C@@]12CC[C@H](N[C@H](C(=O)O)C3CCCCC3)[C@@H]3Oc4c(O)ccc5c4[C@@]31CCN(C)[C@@H]2C5           12
17  CO[C@@]12CC[C@H](N[C@@H](CC(=O)O)C(=O)O)[C@@H]3Oc4c(O)ccc5c4[C@@]31CCN(C)[C@@H]2C5           11
18  CO[C@@]12CC[C@H](N[C@@H](Cc3ccccc3)C(=O)O)[C@@H]3Oc4c(O)ccc5c4[C@@]31CCN(C)[C@@H]2C5          3.9

====

molecular target: Delta-type opioid receptor (Rattus norvegicus, UniProt P33533); assay: Displacement of [3H][Ile5,6]deltorphin II from delta opioid receptor in rat brain membranes incubated for 45 mins by liquid scintillation counting method
Sequence (P33533 whole entry): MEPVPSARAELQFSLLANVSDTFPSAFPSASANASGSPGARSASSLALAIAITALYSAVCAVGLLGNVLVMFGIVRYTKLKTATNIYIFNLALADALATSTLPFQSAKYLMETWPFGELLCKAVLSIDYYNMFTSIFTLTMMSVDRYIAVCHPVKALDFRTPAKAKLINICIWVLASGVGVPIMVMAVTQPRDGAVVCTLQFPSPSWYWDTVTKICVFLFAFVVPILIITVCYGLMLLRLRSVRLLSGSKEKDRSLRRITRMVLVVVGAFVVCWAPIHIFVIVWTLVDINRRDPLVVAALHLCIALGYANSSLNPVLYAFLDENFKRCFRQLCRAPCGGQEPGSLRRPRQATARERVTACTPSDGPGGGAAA
pKi: −log10 of the molar value.
resultType: pKi

>>> print(df.to_string())
                             chemicalsmiles  measurement
0  CO[C@@]12CC[C@@H](N[C@@H](C)C(=O)O)[C@@H]3Oc4c(O)ccc5c4[C@@]31CCN(C)[C@@H]2C5         8.11
1  CO[C@@]12CC[C@@H](N[C@@H](Cc3ccccc3)C(=O)O)[C@@H]3Oc4c(O)ccc5c4[C@@]31CCN(C)[C@@H]2C5         8.99

====

experiment: Selectivity index, ratio of Ki for displacement of [3H]U69,593 from kappa opioid receptor in guinea-pig brain membranes to Ki for displacement of [3H]DAMGO from mu opioid receptor in rat brain membranes; format: cell membranes
resultType: Ratio Ki

>>> print(df.to_string())
                             chemicalsmiles  resulttype  measurement
0  CO[C@@]12CC[C@H](N[C@H](Cc3ccccc3)C(=O)O)[C@@H]3Oc4c(O)ccc5c4[C@@]31CCN(C)[C@@H]2C5    Ratio Ki          125
1  CO[C@@]12CC[C@@H](N[C@@H](CO)C(=O)O)[C@@H]3Oc4c(O)ccc5c4[C@@]31CCN(C)[C@@H]2C5    Ratio Ki           71
2  CO[C@@]12CC[C@H](N[C@H](C(=O)O)C3CCCCC3)[C@@H]3Oc4c(O)ccc5c4[C@@]31CCN(C)[C@@H]2C5    Ratio Ki          144
3  CO[C@@]12CC[C@@H](N[C@H](C(=O)O)C3CCCCC3)[C@@H]3Oc4c(O)ccc5c4[C@@]31CCN(C)[C@@H]2C5    Ratio Ki           71
4  CO[C@@]12CC[C@H](N[C@@H](CO)C(=O)O)[C@@H]3Oc4c(O)ccc5c4[C@@]31CCN(C)[C@@H]2C5    Ratio Ki           89

====

Catalogue of compounds with associated Ki
target: Mu-type opioid receptor (Rattus norvegicus)
Sequence (P33535 whole entry): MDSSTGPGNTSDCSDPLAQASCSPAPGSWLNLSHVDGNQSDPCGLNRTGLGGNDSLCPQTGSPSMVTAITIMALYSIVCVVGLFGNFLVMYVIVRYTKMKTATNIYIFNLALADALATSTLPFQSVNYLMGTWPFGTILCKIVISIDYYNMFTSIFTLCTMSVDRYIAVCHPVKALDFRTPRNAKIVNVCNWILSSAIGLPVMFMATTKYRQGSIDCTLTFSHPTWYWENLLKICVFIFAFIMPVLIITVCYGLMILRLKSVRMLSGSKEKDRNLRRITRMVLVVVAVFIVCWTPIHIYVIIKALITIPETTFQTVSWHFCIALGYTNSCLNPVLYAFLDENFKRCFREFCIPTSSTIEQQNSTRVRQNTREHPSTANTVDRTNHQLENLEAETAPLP
resultType: Ki (nM)

In [3]: df
Out[3]:
                             chemicalsmiles  measurement
0  CO[C@@]12CC[C@@H](N[C@@H](Cc3ccccc3)C(=O)O)[C@@H]3Oc4c(O)ccc5c4[C@@]31CCN(C)[C@@H]2C5         2.58
1  CO[C@@]12CC[C@H](N[C@@H](Cc3ccccc3)C(=O)O)[C@@H]3Oc4c(O)ccc5c4[C@@]31CCN(C)[C@@H]2C5         0.95

====

# Ki annotations
target: Kappa-type opioid receptor (Cavia porcellus, UniProt P41144); assay: Displacement of [3H]U69,593 from kappa opioid receptor in guinea-pig brain membranes incubated for 30 mins by liquid scintillation counting method; type: cell membranes, Membrane
Sequence (P41144 whole entry): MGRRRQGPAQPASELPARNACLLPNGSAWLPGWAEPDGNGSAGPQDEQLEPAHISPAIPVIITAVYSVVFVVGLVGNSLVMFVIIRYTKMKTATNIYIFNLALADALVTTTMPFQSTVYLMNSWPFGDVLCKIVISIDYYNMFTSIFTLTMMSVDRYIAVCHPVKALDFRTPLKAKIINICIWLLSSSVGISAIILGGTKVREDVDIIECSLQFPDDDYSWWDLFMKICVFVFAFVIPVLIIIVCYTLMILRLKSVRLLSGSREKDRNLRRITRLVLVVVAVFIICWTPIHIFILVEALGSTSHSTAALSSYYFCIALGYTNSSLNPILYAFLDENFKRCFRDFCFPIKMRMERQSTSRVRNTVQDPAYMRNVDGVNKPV
resultType: Ki (nM)

                             chemicalsmiles  resulttype  measurement
0  CO[C@@]12CC[C@@H](N[C@@H](Cc3ccccc3)C(=O)O)[C@@H]3Oc4c(O)ccc5c4[C@@]31CCN(C)[C@@H]2C5          Ki          151
1  CO[C@@]12CC[C@H](N[C@@H](Cc3ccccc3)C(=O)O)[C@@H]3Oc4c(O)ccc5c4[C@@]31CCN(C)[C@@H]2C5          Ki         28.5
2  CO[C@@]12CC[C@@H](N[C@@H](C)C(=O)O)[C@@H]3Oc4c(O)ccc5c4[C@@]31CCN(C)[C@@H]2C5          Ki         63.7
3  CO[C@@]12CC[C@H](N[C@@H](C)C(=O)O)[C@@H]3Oc4c(O)ccc5c4[C@@]31CCN(C)[C@@H]2C5          Ki          142
